# System: rice
# Test: Phytotoxicity test for upland field crops (foliar treatment test)
# Type: in vivo
# Parameters: key: 0 (no harm); 9 (complete withered)
# Assay setup: 50 g ai/ha, Rice (7 days after treatment)
Tick Met if Foliar treatment phytotoxicity, Rice is 4 or greater. Tick Not met if Foliar treatment phytotoxicity, Rice is less than 4.

Incoming: Could you please find out whether `Cn1nnnc1NC(=O)c1ccc(C(F)(F)F)nc1Sc1nnnn1C` has Foliar treatment phytotoxicity, Rice that meets 4 or exceeds it?
Outgoing: Not met

Incoming: Could you please find out whether `CON(Cc1nnn(C)n1)Cc1nc(C(F)(F)F)ccc1C(=O)Nc1nnnn1C` has Foliar treatment phytotoxicity, Rice that meets 4 or exceeds it?
Outgoing: Met

Incoming: Could you please find out whether `Cn1nnc(COCc2nc(C(F)(F)F)ccc2C(=O)Nc2nnnn2C)n1` has Foliar treatment phytotoxicity, Rice that meets 4 or exceeds it?
Outgoing: Not met

Incoming: Could you please find out whether `Cn1nc(COCc2nc(C(F)(F)F)ccc2C(=O)Nc2nnnn2C)nc1C#N` has Foliar treatment phytotoxicity, Rice that meets 4 or exceeds it?
Outgoing: Not met

Incoming: Could you please find out whether `Cn1ncnc1COc1nc(C(F)(F)F)ccc1C(=O)Nc1nnnn1C` has Foliar treatment phytotoxicity, Rice that meets 4 or exceeds it?
Outgoing: Met

Incoming: Could you please find out whether `Cn1nnc(COCc2nc(C(F)(F)Cl)ccc2C(=O)Nc2nnnn2C)n1` has Foliar treatment phytotoxicity, Rice that meets 4 or exceeds it?
Outgoing: Met

Incoming: Could you please find out whether `Cn1nnc(COCc2nc(C(F)(F)F)ccc2C(=O)N(C(=O)c2ccccc2)c2nnnn2C)n1` has Foliar treatment phytotoxicity, Rice that meets 4 or exceeds it?
Outgoing: Met

Incoming: Could you please find out whether `Cn1nnc(COCc2nc(C(F)(F)F)ccc2C(=S)Nc2nnnn2C)n1` has Foliar treatment phytotoxicity, Rice that meets 4 or exceeds it?
Outgoing: Met

Incoming: Could you please find out whether `Cn1cnc(COCc2nc(C(F)F)ccc2C(=O)Nc2nnnn2C)n1` has Foliar treatment phytotoxicity, Rice that meets 4 or exceeds it?
Outgoing: Met

Incoming: Could you please find out whether `Cc1nc(COCc2nc(C(F)(F)F)ccc2C(=S)Nc2nnnn2C)nn1C` has Foliar treatment phytotoxicity, Rice that meets 4 or exceeds it?
Outgoing: Not met

* * *

# System: rice
# Test: Phytotoxicity test for upland field crops (foliar treatment test)
# Assay type: in vivo
# Parameters: key: 0 (no harm); 9 (complete withered)
# Assay setup: 100 g ai/ha, Rice (14 days after treatment)
Provide the reported Foliar treatment phytotoxicity, Rice of each item.
Number only, please.

Note to self: Foliar treatment phytotoxicity, Rice of `Cn1ncnc1COc1nc(C(F)(F)F)ccc1C(=O)Nc1nnnn1C` with rice was 9

Note to self: Foliar treatment phytotoxicity, Rice of `Cn1cnc(COCc2nc(C(F)F)ccc2C(=O)Nc2nnnn2C)n1` with rice was 1

Note to self: Foliar treatment phytotoxicity, Rice of `Cc1nc(COCc2nc(C(F)(F)F)ccc2C(=S)Nc2nnnn2C)nn1C` with rice was 5

Note to self: Foliar treatment phytotoxicity, Rice of `Cn1nnnc1CSc1nc(C(F)(F)F)ccc1C(=S)Nc1nnnn1C` with rice was 9

Note to self: Foliar treatment phytotoxicity, Rice of `Cn1nnc(COCc2nc(C(F)(F)F)ccc2C(=S)Nc2nnnn2C)n1` with rice was 8

Note to self: Foliar treatment phytotoxicity, Rice of `Cn1ncnc1COCc1nc(C(F)(F)F)ccc1C(=O)Nc1nnnn1C` with rice was 9

Note to self: Foliar treatment phytotoxicity, Rice of `CON(Cc1nnn(C)n1)c1nc(C(F)(F)F)ccc1C(=O)Nc1nnnn1C` with rice was 7

Note to self: Foliar treatment phytotoxicity, Rice of COC(=O)OC(C)N(C(=O)c1ccc(C(F)(F)F)nc1COCc1nnn(C)n1)c1nnnn1C (centres unmarked) with rice was 4

* * *

# Test system: wheat
# Test: Phytotoxicity test for upland field crops (foliar treatment test)
# Type: in vivo
# Set-up: key: 0 (no harm); 9 (complete withered)
# Assay setup: 50 g ai/ha, Wheat (14 days after treatment)
Quantity: Foliar treatment phytotoxicity, Wheat
Number only, please.

Short answer for `Cn1nnc(CSCc2nc(C(F)(F)F)ccc2C(=O)N(c2nnnn2C)S(C)(=O)=O)n1` : Foliar treatment phytotoxicity, Wheat was 0

Short answer for `CCCn1nnnc1NC(=O)c1ccc(C(F)(F)F)nc1COCc1nc(C(F)(F)F)n(C)n1` : Foliar treatment phytotoxicity, Wheat was 0

Short answer for `CCn1nnc(COCc2nc(C(F)(F)F)ccc2C(=O)Nc2nnnn2CC)n1` : Foliar treatment phytotoxicity, Wheat was 0

Short answer for `Cn1nnc(CSCc2nc(C(F)(F)F)ccc2C(=O)N(C(=O)c2ccccc2)c2nnnn2C)n1` : Foliar treatment phytotoxicity, Wheat was 2

* * *

# System: soybean
# Test: Phytotoxicity test for field crops (soil treatment test)
# Type: in vivo
# Assay setup: 100 g ai/ha; Soybean (10 days after treatment)
# Procedure: Experimental Example 4: Phytotoxicity Test for Field Crops (Soil Treatment Test) Soil treatment was performed for sown crops and weeds in a square plastic pot having a surface area of 50 cm^2 filled with sterilized horticultural soil (pH 6.1, organic material 1.0%, clay 21%, silt 17%, sand 52%). As a fertilizer per pot, 0.5 g of horticultural mixed fertilizer (N:P:K=17:21:17) was treated by mixing with soil. Five kinds of crops such as rice, wheat, corn, soybean, and cotton were sown in each pot. […]
Quantity: Soil treatment phytotoxicity, Soybean
Number only, please.

Note to self: Soil treatment phytotoxicity, Soybean of `CN(Cc1nnn(C)n1)c1nc(C(F)(F)F)ccc1C(=O)Nc1nnnn1C` with soybean was 7

Note to self: Soil treatment phytotoxicity, Soybean of `Cn1nnc(COCc2nc(C(F)(F)F)ccc2C(=O)N(C(=O)c2ccccc2)c2nnnn2C)n1` with soybean was 0

Note to self: Soil treatment phytotoxicity, Soybean of `Cn1cnc(COCc2nc(C(F)F)ccc2C(=O)Nc2nnnn2C)n1` with soybean was 3

Note to self: Soil treatment phytotoxicity, Soybean of `Cn1nnc(COCc2nc(C(F)F)ccc2C(=O)Nc2nnnn2C)n1` with soybean was 0

Note to self: Soil treatment phytotoxicity, Soybean of `Cn1nnnc1NC(=O)c1ccc(C(F)(F)F)nc1OCc1nnnn1C(F)F` with soybean was 0

Note to self: Soil treatment phytotoxicity, Soybean of `CON(Cc1nnn(C)n1)Cc1nc(C(F)(F)F)ccc1C(=O)Nc1nnnn1C` with soybean was 0

Note to self: Soil treatment phytotoxicity, Soybean of `Cn1nnnc1NC(=O)c1ccc(C(F)(F)F)nc1Sc1nnnn1C` with soybean was 0

* * *

# Test system: black nightshade
# Test: Herbicidal activity test against upland field weeds (foliar treatment test)
# Type: in vivo
# Assay setup: Solanum nigrum, 50 g ai/ha, scale 0-100
Provide the reported pest or weed control at 50 g/ha of each item.
Could you give me the number in %? Just the number is fine.

Short answer for `Cn1nnnc1COc1nc(C(F)(F)F)cc(Cl)c1C(=O)Nc1nnnn1C` : pest or weed control at 50 g/ha was 60

Short answer for `CCc1cc(C(=O)Nc2nnnn2C)c(OCc2nnnn2C)nc1C(F)(F)F` : pest or weed control at 50 g/ha was 90

Short answer for `Cn1nnc(COCc2nc(C(F)(F)F)ccc2C(=S)Nc2nnnn2C)n1` : pest or weed control at 50 g/ha was 95

Short answer for `Cn1nnc(COCc2nc(C(F)(F)C(F)(F)F)ccc2C(=O)Nc2nnnn2C)n1` : pest or weed control at 50 g/ha was 95

Short answer for `CN(C(=O)c1ccc(C(F)(F)F)nc1OCc1nnnn1C(F)F)c1nnnn1C` : pest or weed control at 50 g/ha was 98

Short answer for `Cn1nnc(COCc2nc(C(F)(F)Cl)ccc2C(=O)Nc2nnnn2C)n1` : pest or weed control at 50 g/ha was 95

Short answer for `Cn1nnnc1COc1nc(C(F)(F)F)ccc1C(=O)Nc1nnnn1C(F)F` : pest or weed control at 50 g/ha was 80

Short answer for `Cn1cnc(COCc2nc(C(F)(F)Cl)ccc2C(=O)Nc2nnnn2C)n1` : pest or weed control at 50 g/ha was 98

* * *

Provide the reported Foliar treatment phytotoxicity, Wheat of each item.
# Test system: wheat
# Test: Phytotoxicity test for upland field crops (foliar treatment test)
# Type: in vivo
# Assay setup: 50 g ai/ha, Wheat (7 days after treatment)
Number only, please.

Short answer for `Cn1nnc(CS(=O)(=O)Cc2nc(C(F)(F)F)ccc2C(=O)Nc2nnnn2C)n1` : Foliar treatment phytotoxicity, Wheat was 3

Short answer for `C=CCn1nnnc1NC(=O)c1ccc(C(F)(F)F)nc1COCc1nc(C(F)(F)F)n(C)n1` : Foliar treatment phytotoxicity, Wheat was 0

Short answer for `Cn1nnnc1COCc1nc(C(F)(F)F)ccc1C(=O)Nc1nnnn1C` : Foliar treatment phytotoxicity, Wheat was 4

Short answer for `C=CCn1nnnc1NC(=O)c1ccc(C(F)(F)F)nc1COCc1nc(C(F)F)n(C)n1` : Foliar treatment phytotoxicity, Wheat was 0

Short answer for `CN(Cc1nnn(C)n1)c1nc(C(F)(F)F)ccc1C(=O)Nc1nnnn1C` : Foliar treatment phytotoxicity, Wheat was 1

Short answer for `Cn1nnnc1CSc1nc(C(F)(F)F)ccc1C(=S)Nc1nnnn1C` : Foliar treatment phytotoxicity, Wheat was 0

Short answer for `Cn1nc(COCc2nc(C(F)(F)F)ccc2C(=O)Nc2nnnn2C)nc1I` : Foliar treatment phytotoxicity, Wheat was 0

Short answer for `Cn1ncnc1COc1nc(C(F)(F)F)ccc1C(=O)Nc1nnnn1C` : Foliar treatment phytotoxicity, Wheat was 0
